Source: PubChem BioAssay

tested on: XIP peptide (Xip251-270); test: compounds binding XIP fragment 251-270 – biochemical, small-molecule microarray, fluorescence 635/667 nm, 0.5 µg/mL protein, primary screen (AID 1183); settings: fluorescence 635 nm, higher = more signal
Form field: composite z-score (one value per entry).
Would you mind answering with just the numeric figure?

Let me know recorded composite z-score for Cc1cc(C)c(C(O)C2C=CC3C(=O)N(c4ccccc4)C(=O)C3N2Nc2ccccc2)c(C)c1 (configuration not stated) , thanks.
0.79

Here is another compound to look at.
Identify measured composite z-score associated with CN(C)CCCCCCNC(=O)[C@@H]1C[C@@H]2C(=O)NCC(=O)N2[C@@H]1c1ccc(O)cc1
0.935
